Test system: VRE 1004
Type: cell-based, Enterococcus faecalis
Bridge positions count the residues as written; N and C are the ends. Square brackets hold non-standard residues; d marks the D form. Peptide text beside a SMILES is read from it. dNMeF = CN[C@H](Cc1ccccc1)C(=O)O
Each entry below carries its reported MIC.

CC[C@@H](C)[C@@H](NC(=O)[C@@H](CCCNC(=N)N)NC(=O)[C@H](CO)NC(=O)[C@@H](NC(=O)[C@@H](Cc1ccccc1)NC)[C@@H](C)CC)C(=O)N[C@H](C(=O)N[C@@H](CO)C(=O)N[C@H]1C(=O)N[C@@H](CCCNC(=N)N)C(=O)N[C@@H](CC(C)C)C(=O)N[C@@H]([C@@H](C)CC)C(=O)O[C@H]1C)[C@@H](C)CC [Compound 30, D-Arg4-Arg9-Leu10-teixobactin] (H-[dNMeF]IS[dR][dI]IS[dT]RLI; ester 8-C)
1 µg/mL

We now examine a further compound.
Which MIC value belongs to CCC(C)[C@@H]1NC(=O)[C@H](C)NC(=O)[C@H](NC(=O)[C@H](CO)NC(=O)[C@@H](NC(=O)[C@H](NC(=O)[C@@H](CCCNC(=N)N)NC(=O)[C@H](CO)NC(=O)[C@@H](NC(=O)[C@@H](Cc2ccccc2)NC)[C@@H](C)CC)[C@H](C)CC)[C@@H](C)CC)[C@H](C)OC(=O)[C@H]([C@@H](C)CC)NC1=O (stereo partly drawn) [Compound 33, D-Arg4-Ile10-teixobactin] ?
0.5 µg/mL
